Origin of measurements: the OligoGym collection

TEST_SYSTEM: UBE2V1
ASSAY_PROCEDURE: reporter assay of Huesken 2005; also: test concentration or dose not given here
MEASUREMENT_SETUP: siRNA
Oligonucleotides are written 5' to 3', each unit as a sugar letter and its base; * is a phosphorothioate linkage, no mark a phosphodiester; rarer units and linkages stand in square brackets, end groups in braces. Plain capitals give the bases only. d = 2'-deoxy (DNA); r = 2'-OH (RNA)
OBSERVATION_TYPE: normalised inhibition (eCFP-eYFP dual reporter) (%)
Only the number, expressed in %, is required.

State the recorded normalised inhibition (eCFP-eYFP dual reporter) for this entry: sense rUrGrArGrUrGrArUrGrArArGrGrArArGrArCrUdTdT / antisense rArGrUrCrUrUrCrCrUrUrCrArUrCrArCrUrCrAdGdT
62.3

State the recorded normalised inhibition (eCFP-eYFP dual reporter) for this entry: sense rUrGrArArCrCrUrArGrArArArArUrUrUrCrArCdTdT / antisense rGrUrGrArArArUrUrUrUrCrUrArGrGrUrUrCrAdAdG
43

State the recorded normalised inhibition (eCFP-eYFP dual reporter) for this entry: sense rUrGrGrGrGrUrCrUrArGrArArGrArUrGrArCrGdTdT / antisense rCrGrUrCrArUrCrUrUrCrUrArGrArCrCrCrCrAdGdC
38.8

State the recorded normalised inhibition (eCFP-eYFP dual reporter) for this entry: sense rArArUrArUrArCrArGrCrCrUrUrArArArArUrAdTdT / antisense rUrArUrUrUrUrArArGrGrCrUrGrUrArUrArUrUdCdG
82.9

***
State the recorded normalised inhibition (eCFP-eYFP dual reporter) for this entry: sense rGrArArGrArArCrUrCrGrArArGrArArGrGrCrCdTdT / antisense rGrGrCrCrUrUrCrUrUrCrGrArGrUrUrCrUrUrCdCdA
53.8

State the recorded normalised inhibition (eCFP-eYFP dual reporter) for this entry: sense rArGrArArArGrGrArGrUrArGrGrArGrArUrGrGdTdT / antisense rCrCrArUrCrUrCrCrUrArCrUrCrCrUrUrUrCrUdGdG
58.6

----------
TEST_SYSTEM: Mmp7 (rat)
ASSAY_PROCEDURE: reporter assay of Huesken 2005
MEASUREMENT_SETUP: siRNA
Oligonucleotides are given in HELM: sugar(base)linkage, 5' to 3'; d 2'-deoxyribose, r ribose, m 2'-O-methylribose, p phosphate. ss, as = sense and antisense strand
OBSERVATION_TYPE: normalised inhibition (eCFP-eYFP dual reporter) (%)
Only the number, expressed in %, is required.

Worked examples follow.
State the recorded normalised inhibition (eCFP-eYFP dual reporter) for this entry: RNA1{r(G)p.r(G)p.r(A)p.r(A)p.r(A)p.r(U)p.r(U)p.r(U)p.r(U)p.r(A)p.r(C)p.r(C)p.r(U)p.r(U)p.r(C)p.r(A)p.r(C)p.r(G)p.r(A)p.d(T)p.d(T)}|RNA2{r(U)p.r(C)p.r(G)p.r(U)p.r(G)p.r(A)p.r(A)p.r(G)p.r(G)p.r(U)p.r(A)p.r(A)p.r(A)p.r(A)p.r(U)p.r(U)p.r(U)p.r(C)p.r(C)p.d(T)p.d(A)}$$$RNA1{StrandType:ss}|RNA2{StrandType:as}$
127

State the recorded normalised inhibition (eCFP-eYFP dual reporter) for this entry: RNA1{r(G)p.r(G)p.r(C)p.r(C)p.r(A)p.r(G)p.r(G)p.r(A)p.r(A)p.r(A)p.r(C)p.r(A)p.r(C)p.r(U)p.r(C)p.r(U)p.r(A)p.r(G)p.r(G)p.d(T)p.d(T)}|RNA2{r(C)p.r(C)p.r(U)p.r(A)p.r(G)p.r(A)p.r(G)p.r(U)p.r(G)p.r(U)p.r(U)p.r(U)p.r(C)p.r(C)p.r(U)p.r(G)p.r(G)p.r(C)p.r(C)p.d(C)p.d(A)}$$$RNA1{StrandType:ss}|RNA2{StrandType:as}$
54.5

***
State the recorded normalised inhibition (eCFP-eYFP dual reporter) for this entry: RNA1{r(U)p.r(C)p.r(A)p.r(C)p.r(G)p.r(A)p.r(C)p.r(U)p.r(C)p.r(U)p.r(A)p.r(A)p.r(A)p.r(A)p.r(C)p.r(A)p.r(A)p.r(A)p.r(G)p.d(T)p.d(T)}|RNA2{r(C)p.r(U)p.r(U)p.r(U)p.r(G)p.r(U)p.r(U)p.r(U)p.r(U)p.r(A)p.r(G)p.r(A)p.r(G)p.r(U)p.r(C)p.r(G)p.r(U)p.r(G)p.r(A)p.d(A)p.d(G)}$$$RNA1{StrandType:ss}|RNA2{StrandType:as}$
108

----------
TEST_SYSTEM: UBE2E3
ASSAY_PROCEDURE: reporter assay of Huesken 2005
MEASUREMENT_SETUP: siRNA
Oligonucleotides are written 5' to 3', each unit as a sugar letter and its base; * is a phosphorothioate linkage, no mark a phosphodiester; rarer units and linkages stand in square brackets, end groups in braces. Plain capitals give the bases only. d = 2'-deoxy (DNA); r = 2'-OH (RNA)
OBSERVATION_TYPE: normalised inhibition (eCFP-eYFP dual reporter)
Enter the number, and then the unit.

Worked examples follow.
State the recorded normalised inhibition (eCFP-eYFP dual reporter) for this entry: sense rGrGrUrUrArCrUrUrUrCrCrGrCrArCrCrArGrAdTdT / antisense rUrCrUrGrGrUrGrCrGrGrArArArGrUrArArCrCdTdT
91.4%

State the recorded normalised inhibition (eCFP-eYFP dual reporter) for this entry: sense rCrCrUrUrArArArGrArCrArArCrUrGrGrArGrUdTdT / antisense rArCrUrCrCrArGrUrUrGrUrCrUrUrUrArArGrGdAdT
58.9%

State the recorded normalised inhibition (eCFP-eYFP dual reporter) for this entry: sense rArGrUrCrCrCrGrCrUrUrUrGrArCrUrArUrUrUdTdT / antisense rArArArUrArGrUrCrArArArGrCrGrGrGrArCrUdCdC
56.7%

State the recorded normalised inhibition (eCFP-eYFP dual reporter) for this entry: sense rGrCrUrGrGrGrCrCrUrArArArGrGrArGrArUrAdTdT / antisense rUrArUrCrUrCrCrUrUrUrArGrGrCrCrCrArGrCdAdC
67.2%

State the recorded normalised inhibition (eCFP-eYFP dual reporter) for this entry: sense rGrUrGrCrUrArArArArGrArArUrUrCrArGrArAdTdT / antisense rUrUrCrUrGrArArUrUrCrUrUrUrUrArGrCrArCdTdA
81.5%

State the recorded normalised inhibition (eCFP-eYFP dual reporter) for this entry: sense rCrArArArGrGrUrUrUrUrGrCrUrGrUrCrUrArUdTdT / antisense rArUrArGrArCrArGrCrArArArArCrCrUrUrUrGdAdA
92.4%

State the recorded normalised inhibition (eCFP-eYFP dual reporter) for this entry: sense rUrArUrUrUrGrUrUrCrCrCrUrUrUrUrGrArCrAdTdT / antisense rUrGrUrCrArArArArGrGrGrArArCrArArArUrAdGdA
45.2%

State the recorded normalised inhibition (eCFP-eYFP dual reporter) for this entry: sense rUrUrCrCrGrCrArCrCrArGrArArUrCrUrArUrCdTdT / antisense rGrArUrArGrArUrUrCrUrGrGrUrGrCrGrGrArAdAdG
42.5%

Now consider a different substance.
State the recorded normalised inhibition (eCFP-eYFP dual reporter) for this entry: sense rGrGrUrUrUrUrGrCrUrGrUrCrUrArUrUrUrGrUdTdT / antisense rArCrArArArUrArGrArCrArGrCrArArArArCrCdTdT
94.8%

----------
TEST_SYSTEM: UBE2S
ASSAY_PROCEDURE: reporter assay of Huesken 2005
MEASUREMENT_SETUP: siRNA
Oligonucleotides are written 5' to 3', each unit as a sugar letter and its base; * is a phosphorothioate linkage, no mark a phosphodiester; rarer units and linkages stand in square brackets, end groups in braces. Plain capitals give the bases only. d = 2'-deoxy (DNA); r = 2'-OH (RNA)
This section presents substances with their documented normalised inhibition (eCFP-eYFP dual reporter) values.

Worked examples follow.
Given the entry sense rGrArGrGrGrCrCrCrUrGrArGrGrGrGrArCrCrCdTdT / antisense rGrGrGrUrCrCrCrCrUrCrArGrGrGrCrCrCrUrCdGdA , what normalised inhibition (eCFP-eYFP dual reporter) was observed with UBE2S?
44.6%

Given the entry sense rArGrCrUrUrCrCrUrCrCrArCrCrGrArCrCrCrUdTdT / antisense rArGrGrGrUrCrGrGrUrGrGrArGrGrArArGrCrUdTdC , what normalised inhibition (eCFP-eYFP dual reporter) was observed with UBE2S?
49.4%

Given the entry sense rUrArArCrCrCrCrGrArGrUrCrUrGrCrArCrUrCdTdT / antisense rGrArGrUrGrCrArGrArCrUrCrGrGrGrGrUrUrAdGdG , what normalised inhibition (eCFP-eYFP dual reporter) was observed with UBE2S?
39.5%

Given the entry sense rArCrCrCrGrArUrGrGrCrArUrCrArArGrGrUrCdTdT / antisense rGrArCrCrUrUrGrArUrGrCrCrArUrCrGrGrGrUdGdG , what normalised inhibition (eCFP-eYFP dual reporter) was observed with UBE2S?
66.4%

***
Given the entry sense rCrCrArCrCrCrGrArUrGrGrCrArUrCrArArGrGdTdT / antisense rCrCrUrUrGrArUrGrCrCrArUrCrGrGrGrUrGrGdGdT , what normalised inhibition (eCFP-eYFP dual reporter) was observed with UBE2S?
47.2%

Given the entry sense rArUrGrGrCrArUrCrArArGrGrUrCrUrUrUrCrCdTdT / antisense rGrGrArArArGrArCrCrUrUrGrArUrGrCrCrArUdCdG , what normalised inhibition (eCFP-eYFP dual reporter) was observed with UBE2S?
56.5%
